FYI, the data here is from ChEMBL document CHEMBL1770085.

Documented Ratio IC50 across a set of molecules
- assay_method_text: Selectivity index, ratio of IC50 for equine BChE to IC50 for bovine AChE

Prompt line: Complete the entry with Ratio IC50 for OC1C[N+]2(Cc3ccc(/C=C/c4ccc(C[N+]56CCC(CC5)C(O)C6)cc4)cc3)CCC1CC2 (stereo not drawn)
Response line: 38

Prompt line: Complete the entry with Ratio IC50 for c1cc(C[N+]23CCC(CC2)CC3)cc(-c2cccc(C[N+]34CCC(CC3)CC4)c2)c1
Response line: 0.081

Prompt line: Complete the entry with Ratio IC50 for c1cc(C[n+]2ccc(N3CCCC3)cc2)ccc1CCCc1ccc(C[n+]2ccc(N3CCCC3)cc2)cc1
Response line: 3.6

Prompt line: Complete the entry with Ratio IC50 for COc1cc2c(cc1OC)CN(c1cc[n+](Cc3ccc(-c4ccc(C[n+]5ccc(N6CCc7cc(OC)c(OC)cc7C6)cc5)cc4)cc3)cc1)CC2
Response line: 16

Prompt line: Complete the entry with Ratio IC50 for c1cc(C[n+]2ccc(N3CCCCC3)cc2)ccc1CCCc1ccc(C[n+]2ccc(N3CCCCC3)cc2)cc1
Response line: 0.91

Prompt line: Complete the entry with Ratio IC50 for c1cc(C[n+]2ccc(N3CCCC3)cc2)ccc1CCCCc1ccc(C[n+]2ccc(N3CCCC3)cc2)cc1
Response line: 6.5

Prompt line: Complete the entry with Ratio IC50 for c1ccc(-c2cc[n+](Cc3cccc(-c4cccc(C[n+]5ccc(-c6ccccc6)cc5)c4)c3)cc2)cc1
Response line: 1.4

Prompt line: Complete the entry with Ratio IC50 for CN(C)c1cc[n+](Cc2ccc(CCCCc3ccc(C[n+]4ccc(N(C)C)cc4)cc3)cc2)cc1
Response line: 1.5

---

Documented Ratio IC50 across a set of compounds
- assay_method_text: Selectivity index, ratio of IC50 for equine BChE to IC50 for bovine AChE
The reply should be a number, written without any unit.

Completed entries (count: 5):
Cc1c[n+](Cc2cccc(-c3cccc(C[n+]4cc(C)c(N)c5ccccc54)c3)c2)c2ccccc2c1N: 0.12
c1cc(C[n+]2ccc(N3CCCC3)cc2)ccc1CCc1ccc(C[n+]2ccc(N3CCCC3)cc2)cc1: 1.9
Nc1cc[n+](Cc2ccc(CCc3ccc(C[n+]4ccc(N)c5ccccc54)cc3)cc2)c2ccccc12: 0.92
Cc1c2c(C)c3c(C)c1C[n+]1ccc(cc1)NCc1cc(cc(c1)CNc1cc[n+](cc1)C3)CNc1cc[n+](cc1)C2: 0.14
c1ccc2c(c1)CCN(c1cc[n+](Cc3ccc(-c4ccc(C[n+]5ccc(N6CCc7ccccc7C6)cc5)cc4)cc3)cc1)C2: 0.92

Prompt line: Complete the entry with Ratio IC50 for CN(c1ccc(Cl)cc1)c1cc[n+](Cc2ccc(-c3ccc(C[n+]4ccc(N(C)c5ccc(Cl)cc5)cc4)cc3)cc2)cc1
Response line: 0.22

Prompt line: Complete the entry with Ratio IC50 for OC1C[N+]2(Cc3cccc(-c4cccc(C[N+]56CCC(CC5)C(O)C6)c4)c3)CCC1CC2 (stereo unspecified)
Response line: 0.11

Prompt line: Complete the entry with Ratio IC50 for c1cc(C[n+]2ccc(N3CCCCC3)cc2)ccc1C[n+]1ccc(N2CCCCC2)cc1
Response line: 9.5

Prompt line: Complete the entry with Ratio IC50 for c1cc(C[n+]2ccc(N3CCCC3)cc2)cc(-c2cccc(C[n+]3ccc(N4CCCC4)cc3)c2)c1
Response line: 13

Prompt line: Complete the entry with Ratio IC50 for c1cc(C[n+]2ccc(N3CCc4ccccc4C3)cc2)cc(C[n+]2ccc(N3CCc4ccccc4C3)cc2)c1
Response line: 0.68

Prompt line: Complete the entry with Ratio IC50 for c1cc(C[n+]2ccc(N3CCCCC3)cc2)ccc1CCc1ccc(C[n+]2ccc(N3CCCCC3)cc2)cc1
Response line: 1.6

Prompt line: Complete the entry with Ratio IC50 for c1cc(C[n+]2ccc(N3CCCCCC3)cc2)ccc1CCc1ccc(C[n+]2ccc(N3CCCCCC3)cc2)cc1
Response line: 3.2

Prompt line: Complete the entry with Ratio IC50 for c1cc(C[n+]2ccc(N3CCCCCC3)cc2)ccc1CCCc1ccc(C[n+]2ccc(N3CCCCCC3)cc2)cc1
Response line: 0.81

Prompt line: Complete the entry with Ratio IC50 for CN(c1cc[n+](Cc2cc(C[n+]3ccc(N(C)c4cc(Cl)cc(Cl)c4)cc3)cc(C[n+]3ccc(N(C)c4cc(Cl)cc(Cl)c4)cc3)c2)cc1)c1cc(Cl)cc(Cl)c1
Response line: 0.38

Prompt line: Complete the entry with Ratio IC50 for COc1cc2c(cc1OC)CN(c1cc[n+](Cc3cccc(C[n+]4ccc(N5CCc6cc(OC)c(OC)cc6C5)cc4)c3)cc1)CC2
Response line: 0.42

Prompt line: Complete the entry with Ratio IC50 for COc1cc2c(cc1OC)CN(c1cc[n+](Cc3cccc(-c4cccc(C[n+]5ccc(N6CCc7cc(OC)c(OC)cc7C6)cc5)c4)c3)cc1)CC2
Response line: 2.3

---

Documented IC50 across a set of molecules
- system_under_test: Acetylcholinesterase (Bos taurus, UniProt P23795)
- Sequence (P23795 whole entry): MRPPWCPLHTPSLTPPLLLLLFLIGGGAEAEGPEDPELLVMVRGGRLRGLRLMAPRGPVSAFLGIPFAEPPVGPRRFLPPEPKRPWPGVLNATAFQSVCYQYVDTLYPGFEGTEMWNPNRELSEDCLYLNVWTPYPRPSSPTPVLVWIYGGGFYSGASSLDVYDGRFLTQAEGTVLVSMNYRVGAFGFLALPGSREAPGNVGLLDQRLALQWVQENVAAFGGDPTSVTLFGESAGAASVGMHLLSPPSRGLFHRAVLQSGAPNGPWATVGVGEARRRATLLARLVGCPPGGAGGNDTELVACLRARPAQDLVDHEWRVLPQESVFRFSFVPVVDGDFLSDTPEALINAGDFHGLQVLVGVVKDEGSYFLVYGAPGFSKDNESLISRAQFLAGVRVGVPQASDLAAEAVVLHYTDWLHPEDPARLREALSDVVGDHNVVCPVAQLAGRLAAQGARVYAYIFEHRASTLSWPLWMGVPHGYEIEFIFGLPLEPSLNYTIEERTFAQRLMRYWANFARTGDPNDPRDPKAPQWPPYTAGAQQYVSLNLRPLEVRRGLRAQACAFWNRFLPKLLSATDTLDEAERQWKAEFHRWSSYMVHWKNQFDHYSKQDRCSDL
Give a bare numeral; the unit µM is implied.

Completed entries (count: 5):
CN(c1ccc(Cl)cc1)c1cc[n+](Cc2cccc(-c3cccc(C[n+]4ccc(N(C)c5ccc(Cl)cc5)cc4)c3)c2)cc1: 1.78
c1cc(C[N+]23CCC(CC2)CC3)cc(-c2cccc(C[N+]34CCC(CC3)CC4)c2)c1: 1.1
c1cc(-c2ccc(C[n+]3ccc(N4CCCC4)cc3)cc2)ccc1C[n+]1ccc(N2CCCC2)cc1: 0.09
c1cc(C[n+]2ccc(N3CCCCCC3)cc2)ccc1CCc1ccc(C[n+]2ccc(N3CCCCCC3)cc2)cc1: 0.086
COc1cc2c(cc1OC)CN(c1cc[n+](Cc3ccc(C[n+]4ccc(N5CCc6cc(OC)c(OC)cc6C5)cc4)cc3)cc1)CC2: 1.95

Prompt line: Complete the entry with IC50 for CN(c1ccccc1)c1cc[n+](Cc2cccc(C[n+]3ccc(N(C)c4ccccc4)cc3)c2)cc1
Response line: 1.15

Prompt line: Complete the entry with IC50 for c1cc(C[n+]2ccc(N3CCCCC3)cc2)ccc1C[n+]1ccc(N2CCCCC2)cc1
Response line: 0.072

---

- assay_method_text: Selectivity index, ratio of IC50 for equine BChE to IC50 for bovine AChE
Please mark rule met if the recorded Ratio IC50 is equal to or greater than 2, and rule not met if it falls below.

Answered cases to consult:
c1cc(C[n+]2ccc(N3CCCC3)cc2)ccc1C[n+]1ccc(N2CCCC2)cc1: rule met
CN(c1cc[n+](Cc2ccc(-c3ccc(C[n+]4ccc(N(C)c5cc(Cl)cc(Cl)c5)cc4)cc3)cc2)cc1)c1cc(Cl)cc(Cl)c1: rule not met
COc1cc2c(cc1OC)CN(c1cc[n+](Cc3ccc(C[n+]4ccc(N5CCc6cc(OC)c(OC)cc6C5)cc4)cc3)cc1)CC2: rule not met
c1cc(C[n+]2ccc(N3CCCCC3)cc2)cc(C[n+]2ccc(N3CCCCC3)cc2)c1: rule met

Prompt line: Is the recorded value of Ratio IC50 equal to or greater than 2 for this molecule? CN(c1ccc(Cl)cc1)c1cc[n+](Cc2cccc(-c3cccc(C[n+]4ccc(N(C)c5ccc(Cl)cc5)cc4)c3)c2)cc1
Response line: rule not met

Prompt line: Is the recorded value of Ratio IC50 equal to or greater than 2 for this molecule? CN(C)c1cc[n+](Cc2cccc(C[n+]3ccc(N(C)C)cc3)c2)cc1
Response line: rule met

Prompt line: Is the recorded value of Ratio IC50 equal to or greater than 2 for this molecule? c1ccc2c(c1)CCN(c1cc[n+](Cc3ccc(C[n+]4ccc(N5CCc6ccccc6C5)cc4)cc3)cc1)C2
Response line: rule met

---

Form: system (UniProtKB Q9N1N9), quantity (log10 of IC50), values below.
Sequence (Q9N1N9 whole entry): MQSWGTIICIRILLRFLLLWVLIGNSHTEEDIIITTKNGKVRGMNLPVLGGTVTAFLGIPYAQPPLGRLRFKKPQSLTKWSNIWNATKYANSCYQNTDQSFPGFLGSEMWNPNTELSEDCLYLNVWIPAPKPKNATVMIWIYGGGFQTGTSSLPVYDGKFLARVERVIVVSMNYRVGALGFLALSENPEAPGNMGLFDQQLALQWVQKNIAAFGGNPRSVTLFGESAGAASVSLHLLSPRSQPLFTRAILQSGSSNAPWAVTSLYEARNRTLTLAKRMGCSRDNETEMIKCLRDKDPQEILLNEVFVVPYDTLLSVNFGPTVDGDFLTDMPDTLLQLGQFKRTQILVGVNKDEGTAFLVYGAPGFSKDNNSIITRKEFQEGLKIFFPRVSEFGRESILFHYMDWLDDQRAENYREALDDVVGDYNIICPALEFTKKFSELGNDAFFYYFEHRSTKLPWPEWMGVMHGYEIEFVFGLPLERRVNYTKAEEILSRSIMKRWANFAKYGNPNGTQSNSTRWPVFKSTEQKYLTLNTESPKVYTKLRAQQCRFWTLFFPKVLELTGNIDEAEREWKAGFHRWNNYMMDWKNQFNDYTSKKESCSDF
Hey, these are logged values: log10 of IC50, nM being the unit before logging.

c1cc(C[n+]2ccc(N3CCCCC3)cc2)ccc1CCCc1ccc(C[n+]2ccc(N3CCCCC3)cc2)cc1: 2.17
OC1C[N+]2(Cc3ccc(CCc4ccc(C[N+]56CCC(CC5)C(O)C6)cc4)cc3)CCC1CC2 (stereo unspecified): 3.32
c1cc(-c2ccc(C[n+]3ccc(N4CCCCC4)cc3)cc2)ccc1C[n+]1ccc(N2CCCCC2)cc1: 2.63
c1ccc2c(c1)CCN(c1cc[n+](Cc3ccc(-c4ccc(C[n+]5ccc(N6CCc7ccccc7C6)cc5)cc4)cc3)cc1)C2: 2.50

Prompt line: Complete the entry with log10 of IC50 for c1cc(C[n+]2ccc(N3CCCC3)cc2)ccc1CCCc1ccc(C[n+]2ccc(N3CCCC3)cc2)cc1
Response line: 2.47

Prompt line: Complete the entry with log10 of IC50 for CN(c1ccc(Cl)cc1)c1cc[n+](Cc2cccc(-c3cccc(C[n+]4ccc(N(C)c5ccc(Cl)cc5)cc4)c3)c2)cc1
Response line: 2.70

Prompt line: Complete the entry with log10 of IC50 for CN(c1cc[n+](Cc2ccc(C[n+]3ccc(N(C)c4cc(Cl)cc(Cl)c4)cc3)cc2)cc1)c1cc(Cl)cc(Cl)c1
Response line: 3.20
